Data provenance is patent US20200131274A1.

# ASSAYED SYSTEM: human prostate specific membrane antigen (PSMA), full-length, on cells (human, UniProt Q04609 1-750)
# Sequence (Q04609 whole entry): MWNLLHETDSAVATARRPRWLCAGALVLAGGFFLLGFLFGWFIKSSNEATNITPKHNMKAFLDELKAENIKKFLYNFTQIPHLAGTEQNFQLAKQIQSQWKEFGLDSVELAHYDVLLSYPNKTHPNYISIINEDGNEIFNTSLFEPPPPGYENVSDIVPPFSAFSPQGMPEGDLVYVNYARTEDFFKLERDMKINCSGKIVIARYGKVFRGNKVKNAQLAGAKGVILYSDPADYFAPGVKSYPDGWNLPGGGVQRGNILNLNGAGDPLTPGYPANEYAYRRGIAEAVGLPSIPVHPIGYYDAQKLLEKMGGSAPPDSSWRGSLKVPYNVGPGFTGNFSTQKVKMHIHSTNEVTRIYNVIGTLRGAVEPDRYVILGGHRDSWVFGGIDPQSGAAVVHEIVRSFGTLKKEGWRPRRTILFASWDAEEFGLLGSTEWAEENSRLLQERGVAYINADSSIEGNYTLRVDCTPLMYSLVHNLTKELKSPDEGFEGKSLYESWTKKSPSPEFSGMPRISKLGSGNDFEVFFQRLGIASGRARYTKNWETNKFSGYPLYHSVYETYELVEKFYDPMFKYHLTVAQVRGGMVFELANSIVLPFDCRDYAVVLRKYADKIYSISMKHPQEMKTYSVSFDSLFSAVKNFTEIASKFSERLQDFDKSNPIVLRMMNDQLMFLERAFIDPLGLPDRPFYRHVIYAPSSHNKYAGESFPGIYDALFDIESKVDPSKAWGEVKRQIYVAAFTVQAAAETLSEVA
# TEST SUMMARY: cell-based or functional assay
PROPERTY MEASURED: pHrodo Green internalization assay, human PSMA Average EC50 (M)

BINDER	DATA VALUE
single VH domain antibody 1.14 (VHH, Human single VH domain antibody (Humabody)) VHH: EVQLLESGGGLVQPGGSLRLSCAASGFSFSSYALSWVRQAPGKGLEWVSSIGENNATTDYADVVKGRFTISRDNSKNTLYLQMNSLRVEDTAVYYCVKDGVHWGQGTLVTVSS	4.4e-10
single VH domain antibody 2.12 (VHH, Human single VH domain antibody (Humabody); C-terminal His tag, residues not tied) VHH: EVQLVESGGGVVQPGRSLRLSCAASGFSFSGYGMHWVRQAPGKGLEWVAYISYDKSNKYYADKVKGRFTISRDNSKNTLYLQMNSLRAEDTAVYYCAKDPAWGLRLGESSSYDFDIWGQGTMVTVSS	5.3e-10
single VH domain antibody 2.1 (VHH, Human single VH domain antibody (Humabody); tested with a C-terminal His tag; 71-95; also called VH 2.1; VH2.1) VHH: EVQLVESGGGVVQPGRSLRLSCAASGFSFSGYGMHWVRQAPGKGLEWVAYISYDGSNKYYADSVKGRFTISRDNSKNTLYLQMNSLRAEDTAVYYCAKDPAWGLRLGESSSYDFDIWGQGTMVTVSS	8e-10
single VH domain antibody 1.16 (VHH, Human single VH domain antibody (Humabody)) VHH: EVQLLESGGGLVQPGGSLRLSCAASGFSFSSYALSWVRQAPGKGLEWVSSIGENNHTTDYADTVKGRFTISRDNSKNTLYLQMNSLRVEDTAVYYCVKDGVHWGQGTLVTVSS	4.8e-10
